Cited source for all entries: PubChem BioAssay AID651602

assay: reduced absorbance of E. coli cultures with phage – HTS, RecBCD inhibitor project, primary screen (AID 651602); details: growth absorbance, at 11.9 µM
Out of some 360,000 compounds screened, about 950 (0.26%) were called active. Rule as the data show it: active = inhibition above about 11%; inactive = the rest. Shown is part of a subset that was picked to be rich in actives.
Choose one outcome from this list and give only that: 1 (yes) for active, 0 (no) for inactive

* CCOC(=O)C1=C(C(=O)OCC)C2N(Cc3ccc(C#N)cc3)c3ccccc3[C@@]23C[C@@H](C(=O)OC)N(S(=O)(=O)c2ccc(F)cc2)C3=N1 (some centres undefined) | 0 (no)
* O=C(NNC(=O)c1cc(S(=O)(=O)N2CCCCC2)ccc1Cl)c1ccccc1O | 0 (no)
* Brc1ccc(COCCc2cn(Cc3ccccc3)c3ccccc23)cc1 | 0 (no)

**Query** Assay result, entry `CCn1cc(C(=O)NCCO)c(=O)c2cc(F)c(N3CCN(C)CC3)cc21` — outcome?
**Result** 1 (yes)

**Query** Assay result, entry `CCCCNC(=O)c1cn(CC)c2cc(N3CCN(C(=O)c4ccco4)CC3)c(F)cc2c1=O` — outcome?
**Result** 0 (no)

**Query** Assay result, entry `CC1CCN(C(=O)c2ncn3c2C(=O)N[C@@H](C)C3)CC1` — outcome?
**Result** 0 (no)

**Query** Assay result, entry `O=c1ccc2c(-c3ccccc3S(=O)(=O)O)c3ccc(O)c(O)c3oc-2c1O` — outcome?
**Result** 1 (yes)

**Query** Assay result, entry `O=S1(=O)c2c(cccc2N2CCCC2)O[C@H](COCc2ccccc2)CN1C1CC1` — outcome?
**Result** 0 (no)

**Query** Assay result, entry `O=C(NNC(=O)c1ccccc1O)c1ccccc1O` — outcome?
**Result** 1 (yes)

**Query** Assay result, entry `Nc1[nH]c(C(=O)c2ccc(Br)cc2)c(-c2ccc3c(c2)OCO3)c1C(=O)NCCc1c[nH]c2ccccc12` — outcome?
**Result** 0 (no)

**Query** Assay result, entry `CCn1cc(C(=O)NCCC(=O)NCCO)c(=O)c2cc3c(cc21)OCO3` — outcome?
**Result** 0 (no)

**Query** Assay result, entry `COc1ccc(OC)c(Cc2cnc3nc(N)nc(N)c3c2C)c1` — outcome?
**Result** 1 (yes)

**Query** Assay result, entry `CCCCCCn1cc(C(=O)O)c(=O)c2cc(F)c(N3CCCCC3)cc21` — outcome?
**Result** 0 (no)

**Query** Assay result, entry `CCOC(=O)N1CCN(C(=O)C[C@H]2C[C@@]3(C(=O)OC)C(=C[C@H](C4CCCC4)O[C@@H]3C)N(Cc3ccccc3)C2=O)CC1` — outcome?
**Result** 0 (no)

**Query** Assay result, entry `CN1CCN(c2cc3c(cc2F)c(=O)c(C(=O)O)cn3CCF)CC1` — outcome?
**Result** 1 (yes)

**Query** Assay result, entry `CC(=O)N1C[C@@H](CO)[C@@H](N(C)C(=O)C(C)(C)C)C[C@H]1c1ccccc1Br` — outcome?
**Result** 0 (no)

**Query** Assay result, entry COC(=O)C1=C(C)N(Cc2ccccc2C(F)(F)F)C(=NCC2CC2)NC1c1cccc(Cl)c1 (centres undefined) — outcome?
**Result** 0 (no)

**Query** Assay result, entry `Cc1cc2c(nc1C)CCCN2C` — outcome?
**Result** 0 (no)

**Query** Assay result, entry `O=C(N[C@H](Cc1ccccc1)C(=O)N1CCCN(Cc2cccs2)CC1)[C@H]1O[C@@H](n2ccc(=O)[nH]c2=O)[C@H](O)[C@@H]1O` — outcome?
**Result** 0 (no)
